molecular target: mycothiol S-conjugate amidase (MCA) (Mycolicibacterium smegmatis, UniProt A0R2W9); assay: Fluorescence-detected HPLC assay of MCA cleavage of MSmB (50 μM MSmB as substrate), Examples 1 and 3; assay type: biochemical
Sequence (A0R2W9 whole entry): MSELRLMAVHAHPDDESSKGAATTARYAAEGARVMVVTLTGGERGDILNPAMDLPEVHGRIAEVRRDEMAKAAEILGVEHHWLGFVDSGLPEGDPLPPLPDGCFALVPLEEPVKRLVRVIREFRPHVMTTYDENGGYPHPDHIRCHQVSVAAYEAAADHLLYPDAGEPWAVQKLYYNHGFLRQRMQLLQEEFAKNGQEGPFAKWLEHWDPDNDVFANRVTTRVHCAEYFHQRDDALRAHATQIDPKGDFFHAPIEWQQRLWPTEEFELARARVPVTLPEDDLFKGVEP
observationType: IC50 (nM)
The reply should contain only the number, in nM.

For "COC1=C(Br)[C@@H](O)[C@]2(C=C1Br)CC(C(=O)NCCc1[nH]c(N)nc1-c1cc(O)c3ncc(O)c(O)c3c1O)=NO2" , what is its reported IC50? 2000

* * *

molecular target: M. tuberculosis MCA (Mycobacterium tuberculosis); test: biochemical; conditions: recombinant M. tuberculosis MCA approx. 20 nM, 30 μM synthetic MSmB, 20 min, 31° C.; read-out: IC50 M. tb
Sequence (P9WJN1 whole entry): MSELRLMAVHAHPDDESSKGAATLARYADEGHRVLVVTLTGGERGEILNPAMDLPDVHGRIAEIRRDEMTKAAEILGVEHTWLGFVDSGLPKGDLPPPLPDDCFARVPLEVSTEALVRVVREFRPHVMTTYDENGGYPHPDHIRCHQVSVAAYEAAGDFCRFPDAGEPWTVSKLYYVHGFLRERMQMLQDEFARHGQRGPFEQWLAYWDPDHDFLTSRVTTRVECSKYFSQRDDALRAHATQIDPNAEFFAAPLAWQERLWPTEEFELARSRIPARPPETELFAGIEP
Reported pIC50 values are given for each entry in this list.
# pIC50 is unitless: minus log10 of the molar concentration; print number only

- compound: "COC1=C(Br)[C@@H](O)[C@]2(C=C1Br)CC(C(=O)NCCc1cnc(N)[nH]1)=NO2"
  pIC50: 4.00

For COC1=C(Br)C[C@]2(OC=C1Br)ON=C(C(=O)NCCCOc1c(Br)cc(C(O)CN)cc1Br)[C@@H]2O (stereo partly drawn) , what is its reported pIC50? 4.52

Also need "COC1=C(Br)[C@@H](O)[C@]2(C=C1Br)CC(C(=O)NCCc1[nH]c(N)nc1-c1cc(O)c3ncc(O)c(O)c3c1O)=NO2" , thanks. 5.52

* * *

biological target: Mycobacterium smegmatis mycothiol-S-conjugate amidase (MCA) (Mycolicibacterium smegmatis, UniProt A0R2W9); assay: Fluorescence-based HPLC IC50 assay, wild type M. smegmatis MCA with natural MSmB; format: biochemical; settings: wild type M. smegmatis MCA approx. 20 nM, 30 μM natural MSmB, 20 min, 31° C.; read-out: IC50 M. smeg
Reported log10 IC50 values are given for each entry in this list.
Each number you see is log10 of IC50, and the unit inside the log is µM.

- compound: "COC1=C(Br)[C@@H](O)[C@]2(C=C1Br)CC(C(=O)NCCc1cnc(N)[nH]1)=NO2"
  log10 IC50: 2.00
- compound: "CN1C(=O)[C@]23CC4=CC=C[C@H](O)[C@H]4N2C(=O)[C@@]1(CO)SS3"
  log10 IC50: 1.48
- compound: "COC1=C(Br)C[C@]2(OC=C1Br)ON=C(C(=O)NCCCOc1c(Br)cc(C(O)CN)cc1Br)[C@@H]2O (some centres unmarked)"
  log10 IC50: 1.30
- compound: "COc1cc(O)c2c(c1)C(=O)c1cc(C)cc(O)c1C2=O"
  log10 IC50: 1.70

Kindly review the next compound as well.
For "CS[C@]1(CO)C(=O)N2[C@H]3C(=CC=C[C@@H]3O)C[C@@]2(SC)C(=O)N1C" , what is its reported log10 IC50? 2.45
